# Measured Target: T1, hFcRn with a His-tag (human, UniProt P55899 24-297; P61769 21-119)
# T1 construct: It may be the same product as m1; also called huFcRn (His tagged molecule, BPS); not shown: His-tag
# T1 sequence (P55899 24-297 limits assumed, chain 1 of 2): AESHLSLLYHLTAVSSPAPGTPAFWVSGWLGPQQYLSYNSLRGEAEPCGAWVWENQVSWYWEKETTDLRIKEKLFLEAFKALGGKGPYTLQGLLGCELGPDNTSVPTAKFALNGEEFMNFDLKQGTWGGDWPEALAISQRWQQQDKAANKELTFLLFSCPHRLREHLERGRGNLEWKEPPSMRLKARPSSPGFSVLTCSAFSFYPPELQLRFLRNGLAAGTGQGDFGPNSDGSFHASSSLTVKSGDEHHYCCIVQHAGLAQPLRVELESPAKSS
# T1 sequence (P61769 21-119 limits assumed, chain 2 of 2): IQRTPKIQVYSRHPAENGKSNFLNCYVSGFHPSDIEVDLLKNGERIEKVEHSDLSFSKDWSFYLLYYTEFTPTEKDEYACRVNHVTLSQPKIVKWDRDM
# Assay Details: BLI (Octet), His-hFcRn on Ni-NTA biosensor, Affimer 40 nM, pH 6.0, 1:1 model
Each entry below carries its reported Kd.
Experimental Endpoint: Kd (nM)

>>> experimental_result("FcRn-12 (designed binder, AFFIMER (stefin A variant)) MIPRGLSEAKPATPEIQEIVDKVKPQLEEKTNETYGKLEAVQYKTQVLAKVKTHDHQRSTNYYIKVRAGDNKYMHLKVFNGPIHQHHSQDWADRVLTGYQVDKNKDDELTGFHHHHHH")
28.4
>>> experimental_result("FcRn-16 (designed binder, AFFIMER (stefin A variant)) MIPRGLSEAKPATPEIQEIVDKVKPQLEEKTNETYGKLEAVQYKTQVLAKHHHHKHQHSTNYYIKVRAGDNKYMHLKVFNGPVFLHNESHQADRVLTGYQVDKNKDDELTGFHHHHHH")
20.5
>>> experimental_result("FcRn-48 (designed binder, AFFIMER (stefin A variant)) MIPRGLSEAKPATPEIQEIVDKVKPQLEEKTNETYGKLEAVQYKTQVLAKPKYHHHDISTNYYIKVRAGDNKYMHLKVFNGPGHHAKPHRWADRVLTGYQVDKNKDDELTGFHHHHHH")
8.76
